Molecular target: T1, mouse tissue factor pathway inhibitor (TFPI) (mouse, UniProt O54819 29-289, limits assumed)
T1 construct: bought; also called mTFPI; murine TFPI
T1 sequence (looked up): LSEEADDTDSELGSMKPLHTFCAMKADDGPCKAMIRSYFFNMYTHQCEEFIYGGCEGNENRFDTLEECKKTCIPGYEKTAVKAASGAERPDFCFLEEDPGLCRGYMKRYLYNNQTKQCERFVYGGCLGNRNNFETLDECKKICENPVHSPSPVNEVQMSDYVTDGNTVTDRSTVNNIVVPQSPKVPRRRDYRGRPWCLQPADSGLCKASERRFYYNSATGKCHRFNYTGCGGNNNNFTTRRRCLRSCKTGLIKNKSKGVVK
Assay: equilibrium ELISA
Threshold check on variant/wild-type: strictly below 6 ratio is Y; on or above 6 ratio is N.

1. 4B7 HC_H107M (Fab, V domains shown) VH: QVQLQQSGPGLVKPSQTLSLTCAISGDSVSSNSAAWSWIRQSPGRGLEWLGIIYKRSKWYNDYAVSVKSRITINPDTSKNQFSLQLNSVTPEDTAVYYCARWHSDKMWGFDYWGQGTLVTVSS VL: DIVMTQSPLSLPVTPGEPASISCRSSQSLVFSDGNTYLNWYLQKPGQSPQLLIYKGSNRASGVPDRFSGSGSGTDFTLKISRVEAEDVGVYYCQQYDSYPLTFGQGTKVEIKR :: Y
2. 4B7 LC_S32R (Fab, V domains shown) VH: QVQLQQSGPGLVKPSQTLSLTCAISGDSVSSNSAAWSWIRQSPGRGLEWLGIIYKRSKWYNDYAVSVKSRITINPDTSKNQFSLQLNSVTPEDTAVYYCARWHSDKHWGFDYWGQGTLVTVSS VL: DIVMTQSPLSLPVTPGEPASISCRSSQSLVFRDGNTYLNWYLQKPGQSPQLLIYKGSNRASGVPDRFSGSGSGTDFTLKISRVEAEDVGVYYCQQYDSYPLTFGQGTKVEIKR :: N
3. 4B7 LC_D33F LC_Y54F (Fab, V domains shown) VH: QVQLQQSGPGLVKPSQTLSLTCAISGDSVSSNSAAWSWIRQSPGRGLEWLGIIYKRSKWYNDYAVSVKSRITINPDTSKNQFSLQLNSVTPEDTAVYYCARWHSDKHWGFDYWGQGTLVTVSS VL: DIVMTQSPLSLPVTPGEPASISCRSSQSLVFSFGNTYLNWYLQKPGQSPQLLIFKGSNRASGVPDRFSGSGSGTDFTLKISRVEAEDVGVYYCQQYDSYPLTFGQGTKVEIKR :: N
4. 4B7 HC_D62S (Fab, V domains shown) VH: QVQLQQSGPGLVKPSQTLSLTCAISGDSVSSNSAAWSWIRQSPGRGLEWLGIIYKRSKWYNSYAVSVKSRITINPDTSKNQFSLQLNSVTPEDTAVYYCARWHSDKHWGFDYWGQGTLVTVSS VL: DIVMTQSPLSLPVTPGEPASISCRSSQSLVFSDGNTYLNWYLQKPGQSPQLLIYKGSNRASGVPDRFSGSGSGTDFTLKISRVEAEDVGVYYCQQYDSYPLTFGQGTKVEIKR :: N
